Entries and their Percent Control
# System: PAK7
# CONDITION_SUMMARY: Compound Concentration (nM):1000;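 also: KINOMEscan scanMAX binding as percent activity remaining versus control; lower means stronger binding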
Field format: number, assumed %, no unit text.

Worked cases, Percent Control given:
Write down the reported Percent Control of COc1cccc(-n2ncc3c(N/N=C/c4ccncc4)ncnc32)c1 [GW784752X] , test system: PAK7.
100

Please give the result for COc1ccc(COc2ccc(Cc3cnc(N)nc3N)cc2OC)cc1 [GW632580X] too.
100

Please give the result for NS(=O)(=O)c1ccc(N/N=C2\C(=O)Nc3ccc(Cl)cc32)cc1 [GW280670X] too.
100

Let us examine a further case.
Write down the reported Percent Control of CN1CCN(C(=O)c2ccc(NC(=O)Nc3ccc(N(C)c4ccnc(Nc5ccc(CS(C)(=O)=O)cc5)n4)cc3)cc2)CC1.Cl [GW830263A] , test system: PAK7.
67

---

# Tested on: KIT(V559D,T670I)
# CONDITION_SUMMARY: Compound Concentration (nM):1000
Entries and their Percent Control
Field format: number, assumed %, no unit text.

Worked cases, Percent Control given:
What does the data say about its Percent Control? Entry: CCS(=O)(=O)c1ccc(OC)c(Nc2ncc(-c3cccc(OC)c3)o2)c1 [GW580509X]
66

Please give the result for NS(=O)(=O)c1ccc(N/N=C2\C(=O)Nc3ccc(C(=O)NCc4ccncc4)cc32)cc1 [GW300657X] too.
89

Further cases:
What does the data say about its Percent Control? Entry: CCn1c(-c2nonc2N)nc2c(C#CC(C)(C)O)nc(OCCNC)cc21.Cl
100

Please give the result for C[C@@H](Oc1cc(-n2cnc3ccc(OC4CCN(C)CC4)cc32)sc1C(N)=O)c1ccccc1Cl [GSK579289A] too.
41

Please give the result for CN1CCN(C(=O)c2ccc(NC(=O)Nc3ccc(N(C)c4ccnc(Nc5ccc(CS(C)(=O)=O)cc5)n4)cc3)cc2)CC1.Cl [GW830263A] too.
0.1

Please give the result for O=C(Nc1n[nH]c2nc(-c3ccc(O)cc3)c(Br)cc12)C1CC1 too.
100

Please give the result for COc1ccc(COc2ccc(Cc3cnc(N)nc3N)cc2OC)cc1 [GW632580X] too.
100

---

# System: ABL2
# CONDITION_SUMMARY: Compound Concentration (nM):1000
Entries and their Percent Control
Lab note: write values as number then unit, every time.

Worked cases, Percent Control given:
What does the data say about its Percent Control? Entry: C/C(Nc1ccc(S(N)(=O)=O)cc1)=C1/C(=O)Nc2ccccc21 [GW335962X]
100%

Please give the result for O=C1Nc2ccc(C(=O)c3ccco3)cc2C1=Cc1cc(Cl)c(O)c(Cl)c1 [GW406108X] too.
100%

Please give the result for NS(=O)(=O)c1ccc(N/N=C2\C(=O)Nc3ccc(-c4cnco4)cc32)cc1 too.
98%

Let us examine a further case.
What does the data say about its Percent Control? Entry: COc1cc(N2CCN(C(C)C)CC2)ccc1Nc1nc(Nc2ccc(F)cc2C(=O)NC[C@@H](O)CO)c2cc[nH]c2n1 [GSK1392956A]
100%

---

# System: DDR1
# CONDITION_SUMMARY: Compound Concentration (nM):1000
MEASURED_METRIC: Percent Control (%)
Field format: number, assumed %, no unit text.

What does the data say about its Percent Control? Entry: COc1cc(/C=N/Nc2ncnc3[nH]ncc23)ccc1O [GW578748X]
100

Please give the result for COc1ccc(COc2ccc(Cc3cnc(N)nc3N)cc2OC)cc1 [GW632580X] too.
78

Please give the result for COc1cc2ncnc(Nc3ccc4c(cnn4Cc4ccccc4)c3)c2cc1OC.Cl [GW282449A] too.
91

Further cases:
What does the data say about its Percent Control? Entry: Cl.O=C(O[C@H]1CN[C@H](C#Cc2cc3ncnc(Nc4ccc5c(cnn5Cc5ccccc5)c4)c3s2)C1)N1CCOCC1 [GSK200398A]
92

Please give the result for CCS(=O)(=O)c1ccc(OC)c(Nc2ncc(-c3cccc(F)c3)o2)c1 [GW621970X] too.
55

Data credit: paper PMC7826789
